test system: LOC_OS02G54510-cb004; assay: thermal shift delta Tm vs DMSO control; higher = stronger stabilization (binding); conditions: 12.5 µM; protein concentration 2 µM;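 further: purified Escherichia coli-expressed rice kinase domain construct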
measured.attribute: thermal shift delta Tm (°C)
Give the quantity in °C, number only.

molecule: COc1cc2nccc(Oc3ccc(NC(=O)NC4CC4)c(Cl)c3)c2cc1C(N)=O [Lenvatinib (E7080)]
target.of.assay: LOC_OS02G54510-cb004
measured.attribute: thermal shift delta Tm
recorded.number: 0.49
//
molecule: Nc1nc(Nc2ccc(S(N)(=O)=O)cc2)nn1C(=O)c1c(F)cccc1F
target.of.assay: LOC_OS02G54510-cb004
measured.attribute: thermal shift delta Tm
recorded.number: 2.82
//
molecule: CN(C[C@@H]1COCCO1)S(=O)(=O)Nc1ccc2ccc3ncc(-c4cnn(C)c4)cc3c(=O)c2c1
target.of.assay: LOC_OS02G54510-cb004
measured.attribute: thermal shift delta Tm
recorded.number: 0.42

// query Find the recorded thermal shift delta Tm belonging to CC(C)NC[C@@H](C(=O)N1CCN(c2ncnc3c2[C@H](C)C[C@H]3O)CC1)c1ccc(Cl)cc1 and report it.
// result 0.15

// query Entry Cc1cc2c(F)c(Oc3ncnn4cc(OC[C@@H](C)OC(=O)[C@H](C)N)c(C)c34)ccc2[nH]1 has what thermal shift delta Tm?
// result -0.11

// query Need thermal shift delta Tm of CN1CCN(CCOc2cc(OC3CCOCC3)c3c(Nc4c(Cl)ccc5c4OCO5)ncnc3c2)CC1 , thanks.
// result 0.77

// query Can you look up the measured thermal shift delta Tm of CC(C)(C)NC(=O)c1cncn1C1CCN(c2ccc(-c3nnc(C(F)(F)F)o3)cn2)CC1 for me?
// result 0.27

// query Please look up its thermal shift delta Tm: CCc1ccc(/C=C2/SC(=S)NC2=O)cc1
// result 0.83

---

Items are presented alongside their recorded thermal shift delta Tm.
test system: LOC_OS01G52050-cb004; assay: thermal shift delta Tm vs DMSO control; higher = stronger stabilization (binding); conditions: 12.5 µM; protein concentration 2 µM
Sequence (as listed by the source): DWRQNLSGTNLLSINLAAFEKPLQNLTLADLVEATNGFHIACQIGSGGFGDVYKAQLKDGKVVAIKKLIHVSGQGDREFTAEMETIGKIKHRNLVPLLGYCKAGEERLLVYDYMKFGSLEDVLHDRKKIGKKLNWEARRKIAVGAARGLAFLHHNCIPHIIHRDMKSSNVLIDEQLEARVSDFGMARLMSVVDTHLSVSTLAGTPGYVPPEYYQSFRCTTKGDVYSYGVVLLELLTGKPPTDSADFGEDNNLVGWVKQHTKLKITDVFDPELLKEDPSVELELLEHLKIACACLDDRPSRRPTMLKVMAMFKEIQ
I only need the number, in °C, no unit after it.

Reference set, count: 5
molecule: COc1ccc2[nH]cc(/C=C3\C(=O)Nc4ccc(NC(=O)CCN5CCCCC5)cc43)c2c1
thermal shift delta Tm (°C): 0.72
--
molecule: CC(C)(C)NC(=O)c1cncn1C1CCN(c2ccc(-c3nnc(C(F)(F)F)o3)cn2)CC1
thermal shift delta Tm (°C): 0.97
--
molecule: NC1(c2ccc(-c3nc4ccn5c(=O)[nH]nc5c4cc3-c3ccccc3)cc2)CCC1
thermal shift delta Tm (°C): 0.16
--
molecule: OC1CCC(Oc2cccc3cnc(Nc4ccc5nc[nH]c5c4)nc23)CC1 (configuration not stated)
thermal shift delta Tm (°C): 3.63
--
molecule: CC(C)c1ccc2oc3nc(N)c(C(=O)O)cc3c(=O)c2c1 [Amlexanox]
thermal shift delta Tm (°C): 1.26

Next up:
// query Item CCNC(=O)Nc1ccc(-c2nc(N3CCOC[C@@H]3C)c3c(n2)C(C)(C)S(=O)(=O)C3)cc1 has what recorded thermal shift delta Tm?
// result 3.06

---

system: LOC_OS01G02750-cb003; test: thermal shift delta Tm vs DMSO control; higher = stronger stabilization (binding); settings: 12.5 µM; protein concentration 2 µM
Structures can show the parent of a compound that is named as a salt.
measured.attribute: thermal shift delta Tm (°C)
I only need the number, in °C, no unit after it.

molecule: COc1nccnc1NS(=O)(=O)c1ccc(NC(=O)/C=C/c2ccc([N+](=O)[O-])s2)cc1 [Necrosulfonamide]
target.of.assay: LOC_OS01G02750-cb003
thermal shift delta Tm / °C: 0.21

molecule: COc1cc(-c2cc(-c3ccc(N4CCNCC4)cc3)cnc2C)cc(OC)c1OC
target.of.assay: LOC_OS01G02750-cb003
thermal shift delta Tm / °C: 0.65

molecule: O=C(Nc1cccnc1)c1cc(-c2ccnc(F)c2)ccc1OCc1ccccc1
target.of.assay: LOC_OS01G02750-cb003
thermal shift delta Tm / °C: 0.28

molecule: CCn1c(-c2nonc2N)nc2cnc(Oc3cccc(NC(=O)c4ccc(OCCN5CCOCC5)cc4)c3)cc21
target.of.assay: LOC_OS01G02750-cb003
thermal shift delta Tm / °C: 1.24

molecule: O=C(Nc1cccc(Cl)c1)Nc1ncc(CCNc2ncnc3ccsc23)s1 [SNS-314 Mesylate]
target.of.assay: LOC_OS01G02750-cb003
thermal shift delta Tm / °C: 3.42

molecule: CC(C)(O)CNc1ncc(-c2ccnc(Nc3ccncc3)n2)c(CC2CC2)n1
target.of.assay: LOC_OS01G02750-cb003
thermal shift delta Tm / °C: 1.04

molecule: Cc1cc(C(=O)Nc2nc3cccc(Cl)c3n2[C@@H]2CCCCN(C(=O)/C=C/CN(C)C)C2)ccn1 [Nazartinib (EGF816, NVS-816)]
target.of.assay: LOC_OS01G02750-cb003
thermal shift delta Tm / °C: 1.36

molecule: Cc1[nH]c(/C=C2\C(=O)Nc3ccccc32)c(C)c1CCC(=O)O [Orantinib (TSU-68, SU6668)]
target.of.assay: LOC_OS01G02750-cb003
thermal shift delta Tm / °C: 1.43

molecule: COc1ccccc1-c1cc(Nc2cccc(CS(N)(=O)=O)c2)ncn1
target.of.assay: LOC_OS01G02750-cb003
thermal shift delta Tm / °C: 1.83

molecule: Cc1n[nH]c2ncc(C(=O)N3CCC[C@H]3c3ccc(Cl)cc3)cc12
target.of.assay: LOC_OS01G02750-cb003
thermal shift delta Tm / °C: 0.98

// query Entry CN1CCN(c2ccc3nc(-c4c(N)c5c(F)cccc5[nH]c4=O)[nH]c3c2)CC1 [Dovitinib (TKI-258) Dilactic Acid] has what thermal shift delta Tm?
// result 2.07

// query I have this molecule here, O=C(Nc1cccc(Nc2ncc(Br)c(NCCc3cnc[nH]3)n2)c1)N1CCCC1 , and I need its recorded thermal shift delta Tm.
// result 2.32

// query # input molecule: CO[C@H]1C[C@@H]2CC[C@@H](C)[C@@](O)(O2)C(=O)C(=O)N2CCCC[C@H]2C(=O)O[C@H]([C@H](C)C[C@@H]2CC[C@@H](OCCO)[C@H](OC)C2)CC(=O)[C@H](C)/C=C(\C)[C@@H](O)[C@@H](OC)C(=O)[C@H](C)C[C@H](C)/C=C/C=C/C=C/1C [Everolimus (RAD001)] ; wanted: its thermal shift delta Tm
// result -1.72

// query Give the measured thermal shift delta Tm of C[C@H](Nc1ncnc2[nH]cnc12)c1cc2ccc(F)cc2nc1-c1ccccn1 .
// result 2.1

// query Name the recorded thermal shift delta Tm for Cc1ccc2nc(NCCN)c3ncc(C)n3c2c1 .
// result 0.41

// query For C[C@@]1(C(=O)Nc2ccc(F)nc2)CCCN1c1nc(Nc2cc(C3CC3)n[nH]2)c2cccn2n1 , what is its reported thermal shift delta Tm?
// result 3.65
